Data provenance is the supplement of paper PMC12592484.

Test system: CAF#5 (primary prostate cancer-associated fibroblasts of myCAF-like type)
TEST: drug sensitivity score (DSS2, normalised partial AUC of dose-response, 72 h CellTiter-Glo viability) (DSS (dimensionless)); higher = more sensitive (stronger growth inhibition / cytotoxicity); extreme values may be limits of the assay
Listed here are compounds together with their documented drug sensitivity score.
MEASUREMENT NAME: drug sensitivity score

1) O=c1[nH]c(=O)n([C@H]2C[C@H](O)[C@@H](CO)O2)cc1F [Floxuridine] (tested concentration range 1-10000 nM) = 1.4
2) CC(=O)Nc1ccc(C(=O)Nc2ccccc2N)cc1 [Tacedinaline] (tested concentration range 0.1-1000 nM) = 2.5
3) C[C@H]1C[C@@H](n2c(Nc3ccc(OC(F)(F)F)cc3)nc3cc(CCC(=O)O)ccc32)CC(C)(C)C1 (tested concentration range 1-10000 nM) = 0
4) N#Cc1ccc(COC[C@H]2O[C@@H](n3c(NCc4ccc(Cl)c(Cl)c4)nc4c(N)ncnc43)[C@H](O)[C@@H]2O)cc1 (tested concentration range 1-10000 nM) = 4.7
5) Clc1ccccc1C(c1ccccc1)(c1ccccc1)n1cccn1 [TRAM-34] (tested concentration range 0.1-1000 nM) = 0
6) C/C(=C\c1csc(C)n1)[C@@H]1C[C@@H]2O[C@]2(C)CCC[C@H](C)[C@H](O)[C@@H](C)C(=O)C(C)(C)[C@@H](O)CC(=O)N1 [Ixabepilone] (tested concentration range 0.1-1000 nM) = 2.5
7) C[C@@H](NC(=O)c1ncnc(N)c1Cl)c1ncc(C(=O)Nc2cc(C(F)(F)F)c(Cl)cn2)s1 [TAK-580] (tested concentration range 1-10000 nM) = 0
8) O=C(c1ccc(C(=O)N2CCC(N3CCCC3)CC2)c(Nc2ccccc2)c1)N1CCC(N2CCCC2)CC1 [UNC1215] (tested concentration range 1-10000 nM) = 0
9) Cn1cncc1[C@@](N)(c1ccc(Cl)cc1)c1ccc2c(c1)c(-c1cccc(Cl)c1)cc(=O)n2C [Tipifarnib] (tested concentration range 1-10000 nM) = 4.8
10) Nc1ncn([C@H]2C[C@H](O)[C@@H](CO)O2)c(=O)n1 [Decitabine] (tested concentration range 1-10000 nM) = 1.6
11) N#CC(c1ccnc(OCc2ccc(CN3CCOCC3)cc2)n1)c1nc2ccccc2s1 (stereo not drawn) [Bentamapimod] (tested concentration range 1-10000 nM) = 0
12) Nc1nc(Cl)nc2c1ncn2[C@@H]1O[C@H](CO)[C@@H](O)[C@@H]1F [Clofarabine] (tested concentration range 1-10000 nM) = 7.3
13) Nc1nc(NC2CC2)cc(-c2cccc(Cl)c2Cl)n1 [TH588] (tested concentration range 2.5-25000 nM) = 1.7
14) O=C(NCc1ccncc1)C12CC3CC(C1)CC(c1ccc(Cl)cc1)(C3)C2 [Opaganib] (tested concentration range 5-50000 nM) = 0.7
15) CC1(C)CCC(CN2CCN(c3ccc(C(=O)NS(=O)(=O)c4ccc(NCC5CCOCC5)c([N+](=O)[O-])c4)c(Oc4cnc5[nH]ccc5c4)c3)CC2)=C(c2ccc(Cl)cc2)C1 [Venetoclax] (tested concentration range 0.1-1000 nM) = 0
16) Cc1cccc(-c2nn3c(c2-c2ccnc4ccc(C(N)=O)cc24)CCC3)n1 [Galunisertib] (tested concentration range 0.1-1000 nM) = 0
17) C[C@H]1C[C@@H]2[C@H]([C@@H](O)C[C@@]3(C)[C@H]2CC[C@]3(O)C(=O)CO)[C@@]2(C)C=CC(=O)C=C12 [Methylprednisolone] (tested concentration range 1-10000 nM) = 0
18) Cc1cc(-c2nc(-c3ccc(OC(F)(F)F)cc3)no2)nn1Cc1ccnc(N2CCN(C3CC3)CC2)c1 [BAY 87-2243] (tested concentration range 0.1-1000 nM) = 0
19) Cc1c(-c2ccc(N3CCc4cccc(C(=O)Nc5nc6ccccc6s5)c4C3)nc2C(=O)O)cnn1CC12CC3CC(CC(C3)C1)C2 (tested concentration range 0.1-1000 nM) = 0
20) O=C(O)C(=O)O.[NH-][C@@H]1CCCC[C@H]1[NH-].[Pt+2] [Oxaliplatin] (tested concentration range 10-100000 nM) = 9.4
21) Cc1nc(C(=O)NCC(=O)O)c(O)c2ccc(Oc3ccccc3)cc12 [Roxadustat] (tested concentration range 1-10000 nM) = 0.2
22) Nc1cccc2c1CN(C1CCC(=O)NC1=O)C2=O (stereo not drawn) [Lenalidomide] (tested concentration range 10-100000 nM) = 1.1
23) CN(C)Cc1c(C(=O)NCCOc2ccc(C(=O)NO)cc2)oc2ccccc12 [Abexinostat] (tested concentration range 1-10000 nM) = 9.3
